Test: folding stability dG unfold (combined trypsin and chymotrypsin); higher = more stable
Below is a list of entries, each paired with its recorded folding stability dG unfold value.

As a guide, the following entries are already answered.
| primary.sequence | folding stability dG unfold |
| --- | --- |
| SDIKIENYERNPGNGMYMWTVKLPDDGKKIEIMYPPGGIYISVEHPGKKKMFPFKSWEDMLDQVKDLLKNSA [r9_527_TrROS] | 1.36 kcal/mol |
| SAGGSAGGMKVVVKFTVRPRDPDTDEAVPAELVLEFDSLEEALAAAEELAALPEGTEIEIEVLTSAGGSAGG [r6_999_TrMRF] | 1.96 kcal/mol |
| SAGGSAGGSMSIPSDATLVRTYRRGGEELTVSGSVDPATGTVLSEGSLSKRPDATLTEVSVVSSAGGSAGGS [r12_6_JUSTAS] | < -1 kcal/mol |

Attention now shifts to the item below.
query: Please look up its folding stability dG unfold: SAGGSAGGSAGGMRDIAREFAEKNGDKNKPVRIKMPGGKKHNFTPDDIPDMPFDNWTIEPSAGGSAGGSAGG [r7_863_TrROS]
result: < -1 kcal/mol

* * *

Experiment: folding stability dG unfold (combined trypsin and chymotrypsin); higher = more stable
attribute.measured: folding stability dG unfold (kcal/mol)
Provide only the numeric value, understood in kcal/mol.

As a guide, the following entries are already answered.
| primary.sequence | endpoint.value |
| --- | --- |
| SAGGSAGGSAGGTAEAVRKLAEEFSQQHGMPIKDVEVQRPPNKWKPVIRYPDNGKWIEISAGGSAGGSAGGS [r10_161_TrROS] | 0.388 |
| SAGGNMWMVRVKIDDGKTFMITSPEDIEEYLKKKLGPNYKIKEVEWHRMPPPNGPPMPMHEFEIEVPSAGGS [r16_408_TrROS] | 1.76 |
| SAGGSVTLPPEEARAYAEAHPDRDLVLSMRPDDSTVTLELSVDPAAPGALSVRRREVFDPAGNATVVDSAGG [r13_481_JUSTAS] | -0.182 |
| SAGGSAGGSMTETVEKAPDGTPVLVLKETEESTGDGGKTILRPSTVLLPPGTVLSTEDEVILESAGGSAGGS [r12_581_JUSTAS] | 1.52 |
| SAGGSAGGSAGGFNIEVVPGEPGWVIKIEFPDHPITAFVDPEDGKLWIYNPDNGMIFPLSAGGSAGGSAGGS [r10_434_TrROS] | 2.03 |
| SAGSSPEEIAERLREEAERTEKLPDGSEVRVSVSVDVEVLPNGTVRLTIPRSYPETGVVTTETVTIPVASAG [r5_397_JUSTAS] | -0.194 |

query: Please look up its folding stability dG unfold: SAGGSAGGSAGPFEGYRDKKGKYYLETPDGTKELDSEEELEEEKKRLLEEGIPINVKPSASAGGSAGGSAGG [r17_35_JUSTAS]
result: 0.458

query: // repeat for SAPDVGPEERARRLIEEARAEVEAARAAGDPSVPRRVVFDELAVAHPEEAARILEEAARLGIPVEVRPPSAG [r14_908_JUSTAS] and report
result: 0.748

query: // repeat for SAGGSAEVVEREEYFEEKLPNGEKVKVRRIVTEITPIPGLPGYRVEYTVTVEIGDEWETYPLEVAESAGGSA [r15_465_JUSTAS] and report
result: 1.61

query: // repeat for SAGGSAGGLPPGQSIEIFIFSMFPTPNGNLNLEMIQITIRIRPVVRKPDNGGEKYVPPDDPDLASAGGSAGG [r6_405_TrROS] and report
result: 3.97

query: // repeat for SAGGMTITIEKEGDTLKVTITIRDAATNETYTVEATLTRKEDGSLTLEIRFEDGSTKTINLKDIKLVSAGGS [r16_154_TrROS_Hall] and report
result: 3.76

* * *

Below is a list of entries, each paired with its recorded folding stability dG unfold value.
Test: folding stability dG unfold from chymotrypsin proteolysis; higher = more stable
Provide only the numeric value, understood in kcal/mol.

| primary.sequence | folding stability dG unfold [kcal/mol] |
| --- | --- |
| SAGGSAGGSAGGSVSVNIPLEELKERVPPSLSVSVSPTPVPEGGGVRVPVTLTSPAELGSAGGSAGGSAGGS [r4_119_JUSTAS] | 0.471 |
| SAGGSAPVVVVVTPKNGKPIKLKFKFTKKEEAEAAVEEIKKALPKNTKVEAFYVDEEVVKEDKEYLSAGGSA [r15_469_TrMRF] | 1.97 |

query: Please look up its folding stability dG unfold: SMVTVERPESTKTIDAPPSATVEFDPATGTLRVYSPDGTATTVPLSPTWSIQPSDNSVTVTAPPASPAAPSA [r9_653_JUSTAS]
result: 0.669

query: // repeat for SAGSVETFEDPEVGRVVIVPLPGGEVLTIELPPDSITMTLTSPKGGESVTITKKMKPGEEEELIKELASSAG [r5_820_JUSTAS] and report
result: -0.603

query: // repeat for SAGGSAGGSAGGSKLPEGAKITITKNEDGSYTLTVTFPNGEKVEITMSEDELKKLLEALSAGGSAGGSAGGS [r4_16_TrROS_Hall] and report
result: 3.64

* * *

Assay: folding stability dG unfold from trypsin proteolysis; higher = more stable
Outcome label depends on folding stability dG unfold relative to 2 kcal/mol: at/above gives met, below gives not met.

Use these answered entries as a reference point.
| primary.sequence | category.label |
| --- | --- |
| SMNPIGNPITLPDGTTITIIPDLGLILIYDPETGTFIARLILVDENGIPHIFPFIGKIDPETGEIIEIDPSA [r9_122_TrMRF] | met |
| SPFIMIRIDIERKNGKEVEMMFPVPANNIKNNLRDHLGPGYKVKITDIEPIDPEQFPPGQMIKIRYRVKPSA [r9_803_TrROS] | not met |
| SAGGSAGGSAGGKRYRVTELEVVEVDGEKRLLVRFEDGRTQAFPAGAKISPDGAEIELLPSAGGSAGGSAGG [r7_931_TrROS_Hall] | not met |

query: Does the reported folding stability dG unfold for SAGGKKKKLVIKDKKTNKYYEIENAKEIVKIEKVKGKDGKTYYVIYFKKTKKKIVIKTKEDLEKALKSAGGS [r8_206_TrROS_Hall] fall at or above the 2 kcal/mol mark?
result: not met

query: // repeat for SKKKVTIEIEIVVRVPEGDELKNMTAEELAALLAEELGVEVEIVEVELVEYDEETGEYYVRIKVKITFPESA [r9_107_TrROS_Hall] and report
result: met

query: // repeat for SAGGSAGGSPVLLAESVTTLPDGTVVRTRLVRLPDGTYLRETETYPPGGAPARAVERFDDPRLASAGGSAGG [r6_299_JUSTAS] and report
result: not met

query: // repeat for SAGGSAGGSAGMPVKVVLVKWKGGGLEPEGGEEREVEIGPEELEKLVKEAEKEGYEVYPASAGGSAGGSAGG [r17_18_TrMRF] and report
result: not met

* * *

Experiment: folding stability dG unfold from chymotrypsin proteolysis; higher = more stable
attribute.measured: folding stability dG unfold
Could you write the number and then its unit?

As a guide, the following entries are already answered.
| primary.sequence | attribute.measured | endpoint.value |
| --- | --- | --- |
| SAGGSAGGSAEDVVLKVKIEIPSSDGTLLEIDEAIYNPKPGTLHFKIRSPDGSEFEIEIPLDSAGGSAGGSA [r18_370_TrMRF] | folding stability dG unfold | 1.44 kcal/mol |
| SAGGSAGGSAGGPVIPKDVKVKVIFSNGEVAELEVDSVDDLQKKLNVPIPPNVNLVVSRGSAGGSAGGSAGG [r7_223_TrMRF] | folding stability dG unfold | -0.759 kcal/mol |
| SAAEPPPVYLVRITVKVPPGVKPLPPGAVVTYDPATGTLTVYVLMTADEIDALAAAPGVEITDIEVIKLDSA [r9_827_TrROS_Hall] | folding stability dG unfold | 4.94 kcal/mol |
| SAGGSAGGSKKVKEVTITVKNKDGKTVKITKIYKKKDGSKYVLIKDKKTKKTYKISLEDLKKLSAGGSAGGS [r12_488_TrROS_Hall] | folding stability dG unfold | 2.29 kcal/mol |
| SAELPPGMRLVIDDIEPMRNNGKPMLMIKLSIYDPAKPGKEITHWTIMVTNDNIMAIQPTTYRIPPDDISAG [r14_651_TrROS] | folding stability dG unfold | 2.63 kcal/mol |

query: Please look up its folding stability dG unfold: SAHRIMIMFDSPEQAEEIIRKIAEEMGWKPKNIDVEVHPFPVTRPTPDGKKEEHPMYWVTIEIKLKPKKSAG [r14_773_TrROS]
result: 2.84 kcal/mol

* * *

Below is a list of entries, each paired with its recorded folding stability dG unfold value.
Assay: folding stability dG unfold (combined trypsin and chymotrypsin); higher = more stable
Provide only the numeric value, understood in kcal/mol.

| primary.sequence | folding stability dG unfold / kcal/mol |
| --- | --- |
| SAGGSAEIWIWMPYDMIESLAKKAGDPNVKVEPVEPPDDNPGEPYWFKITLKDNGKPKREIEFWFPSAGGSA [r15_428_TrROS] | 2.23 |

query: Please look up its folding stability dG unfold: SAGGSAGGKIEEIAKKLNLEVESIEYDKETKKVTVTIKVNGKLYKIEIYVENGKIVKIKIEELPSAGGSAGG [r6_373_TrROS_Hall]
result: 4.01

query: // repeat for SAGGMEPPPMLLLVIEIENEDGEKLRIVVPLEDLEEVLKALGLSKEEVRIKKIEVVPLTDEQLKELLESAGG [r13_850_TrROS_Hall] and report
result: 3.32

query: // repeat for SAGGETVEIEVEMSPEEVREAIKKAAEALDAEVVEVKYDKETKKVTITVKKGATEEELRKALEEALKSAGGS [r8_338_TrROS_Hall] and report
result: 2.19

query: // repeat for SAGGGSMVTQTEFTLPDGTKVSESTLPDGTVTTTITDPTNPTVTTSPVRTVSPGPLSPANPALVAALSAGGS [r16_482_JUSTAS] and report
result: -0.317
